read-out: Low-density lipoprotein receptor (LDLR), LDLR (gene 3949); assay: BSK_CASM3C_LDLR: BioMAP Diversity Plus: CASM3C Assay for Low-density lipoprotein receptor (LDLR) Biomarker Activity (AID 2283045); conditions: primary human coronary artery smooth muscle cells; actives raise or lower the signal;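 note: LDLR protein level on the cell surface quantified by ELISA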
The source made the active and inactive calls. Rule for the calls: active = hit-call score of the fitted dose curve at least 0.9, where 1 is the maximum; inactive = score below 0.9.
A correct response names exactly one class from active, inactive

Examples from the recorded data:
>>> assigned_category("CCOC(=O)c1ccccc1C(=C1C=C(Br)C(=O)C(Br)=C1)c1cc(Br)c(O)c(Br)c1")
"inactive"
>>> assigned_category("C/C=C\\C/C=C/CCCCCCCCOC(C)=O")
"inactive"
>>> assigned_category("C#CC1(O)CC[C@H]2[C@@H]3CCC4=CCCC[C@@H]4[C@H]3CC[C@@]21C (some centres not stated)")
"inactive"
>>> assigned_category("CCCCCCCCCCCCCCCC[N+](C)(C)CC")
"active"
>>> assigned_category("O=C(c1ccc(O)cc1)c1ccc(O)cc1O")
"inactive"

Qu. Please state the recorded outcome for this molecule: CC(C)(c1cc(Br)c(OCCO)c(Br)c1)c1cc(Br)c(OCCO)c(Br)c1
Ans. inactive

Qu. Please state the recorded outcome for this molecule: c1ccc2c(c1)ccc1cc3c(ccc4ccccc43)cc12
Ans. inactive

Values from PubChem BioAssay (EPA / NIEHS)
